Exercise: state measured relative viability for each of the compounds provided.
Tested on: NCI-H2087
Assay: relative viability (nuclei count vs DMSO), 5 days (fraction); higher = more cells survive
Conditions: first compound 0.8 µM
Please state the value as a number alone, without comment.

Enquiry: Given Nc1cccc2c1CN(C1CCC(=O)NC1=O)C2=O (stereo not given) [Lenalidomide] + Cc1cc(Nc2cc(N3CCN(C)CC3)nc(Sc3ccc(NC(=O)C4CC4)cc3)n2)n[nH]1 [Tozasertib] (partner 0.1 µM) , report its relative viability on NCI-H2087.
Return: 0.226

Enquiry: Find relative viability for Nc1cccc2c1CN(C1CCC(=O)NC1=O)C2=O (stereo not given) [Lenalidomide] + CC1(C)CCC(c2ccc(Cl)cc2)=C(CN2CCN(c3ccc(C(=O)NS(=O)(=O)c4ccc(N[C@H](CCN5CCOCC5)CSc5ccccc5)c(S(=O)(=O)C(F)(F)F)c4)cc3)CC2)C1 [Navitoclax] (partner 0.5 µM) on NCI-H2087 and write it down.
Return: 0.971

Enquiry: Provide NCI-H2087 relative viability reading for Nc1cccc2c1CN(C1CCC(=O)NC1=O)C2=O (stereo not given) [Lenalidomide] + CS(=O)(=O)N1CCN(Cc2cc3nc(-c4cccc5[nH]ncc45)nc(N4CCOCC4)c3s2)CC1 [Pictilisib] (partner 1 µM) .
Return: 0.436

Enquiry: Please tell me the measured relative viability for Nc1cccc2c1CN(C1CCC(=O)NC1=O)C2=O (stereo not given) [Lenalidomide] + COc1cccc2cc(-c3nc([C@H]4CC[C@H](C(=O)O)CC4)n4ncnc(N)c34)[nH]c12 [OSI-027] (partner 0.5 µM) ; system: NCI-H2087.
Return: 0.501

Enquiry: Report its relative viability with NCI-H2087 as the test system: Nc1cccc2c1CN(C1CCC(=O)NC1=O)C2=O (stereo not given) [Lenalidomide] + N=C(N)NC(=N)NCCc1ccccc1 [Phenformin] (partner 250 µM)
Return: 0.372

----------
For each of the compounds below, state its relative viability.
Test system: NCI-H1793
Test: relative viability (nuclei count vs DMSO), 5 days (fraction); higher = more cells survive
Conditions: first compound 0.1 µM

Enquiry: Answer with reported relative viability of Cc1cn(-c2cc(NC(=O)c3ccc(C)c(Nc4nccc(-c5cccnc5)n4)c3)cc(C(F)(F)F)c2)cn1 [Nilotinib] + Cc1nc(NC(=O)N2CCC[C@H]2C(N)=O)sc1-c1ccnc(C(C)(C)C(F)(F)F)c1 [Alpelisib] (partner 2 µM)
Return: 0.454

Enquiry: Identify relative viability associated with the compound Cc1cn(-c2cc(NC(=O)c3ccc(C)c(Nc4nccc(-c5cccnc5)n4)c3)cc(C(F)(F)F)c2)cn1 [Nilotinib] + CS(=O)(=O)N1CCN(Cc2cc3nc(-c4cccc5[nH]ncc45)nc(N4CCOCC4)c3s2)CC1 [Pictilisib] (partner 1 µM)
Return: 0.235

----------
Tested on: LK-2
Experiment: relative viability (nuclei count vs DMSO), 5 days (fraction); higher = more cells survive
Settings: first compound 0.001 µM
measure: relative viability
Just the number, please, no unit after it.

Enquiry: Hello, please tell me recorded relative viability for this one: Cc1cn(-c2cc(NC(=O)c3ccc(C)c(Nc4nccc(-c5cccnc5)n4)c3)cc(C(F)(F)F)c2)cn1 [Nilotinib] + C[C@@H](Oc1cc(-c2cnn(C3CCNCC3)c2)cnc1N)c1c(Cl)ccc(F)c1Cl [Crizotinib] (partner 1 µM)
Return: 0.244

Enquiry: Check the records and state relative viability for Cc1cn(-c2cc(NC(=O)c3ccc(C)c(Nc4nccc(-c5cccnc5)n4)c3)cc(C(F)(F)F)c2)cn1 [Nilotinib] + CC(=O)Nc1cccc(-n2c(=O)n(C3CC3)c(=O)c3c(Nc4ccc(I)cc4F)n(C)c(=O)c(C)c32)c1 [Trametinib] (partner 0.02 µM)
Return: 0.514

Enquiry: Read the entry Cc1cn(-c2cc(NC(=O)c3ccc(C)c(Nc4nccc(-c5cccnc5)n4)c3)cc(C(F)(F)F)c2)cn1 [Nilotinib] + CC1(C)CCC(c2ccc(Cl)cc2)=C(CN2CCN(c3ccc(C(=O)NS(=O)(=O)c4ccc(N[C@H](CCN5CCOCC5)CSc5ccccc5)c(S(=O)(=O)C(F)(F)F)c4)cc3)CC2)C1 [Navitoclax] (partner 0.5 µM) and write its reported relative viability.
Return: 0.759

Enquiry: Respond only with relative viability recorded for Cc1cn(-c2cc(NC(=O)c3ccc(C)c(Nc4nccc(-c5cccnc5)n4)c3)cc(C(F)(F)F)c2)cn1 [Nilotinib] + Cc1nc(NC(=O)N2CCC[C@H]2C(N)=O)sc1-c1ccnc(C(C)(C)C(F)(F)F)c1 [Alpelisib] (partner 2 µM)
Return: 1.16

Enquiry: Input Cc1cn(-c2cc(NC(=O)c3ccc(C)c(Nc4nccc(-c5cccnc5)n4)c3)cc(C(F)(F)F)c2)cn1 [Nilotinib] + N=C(N)NC(=N)NCCc1ccccc1 [Phenformin] (partner 250 µM) , output reported relative viability.
Return: 0.441

----------
Test system: NCI-H838
Assay: relative viability (nuclei count vs DMSO), 5 days (fraction); higher = more cells survive
Conditions: first compound 0.001 µM
measure: relative viability
Write no unit; give the number alone.

Enquiry: # return recorded relative viability for input Cc1cn(-c2cc(NC(=O)c3ccc(C)c(Nc4nccc(-c5cccnc5)n4)c3)cc(C(F)(F)F)c2)cn1 [Nilotinib] + CS(=O)(=O)N1CCN(Cc2cc3nc(-c4cccc5[nH]ncc45)nc(N4CCOCC4)c3s2)CC1 [Pictilisib] (partner 1 µM)
Return: 0.408

Enquiry: Identify measured relative viability associated with Cc1cn(-c2cc(NC(=O)c3ccc(C)c(Nc4nccc(-c5cccnc5)n4)c3)cc(C(F)(F)F)c2)cn1 [Nilotinib] + C[C@@H](Oc1cc(-c2cnn(C3CCNCC3)c2)cnc1N)c1c(Cl)ccc(F)c1Cl [Crizotinib] (partner 1 µM)
Return: 0.896

Enquiry: Please look at this molecule and report its relative viability: Cc1cn(-c2cc(NC(=O)c3ccc(C)c(Nc4nccc(-c5cccnc5)n4)c3)cc(C(F)(F)F)c2)cn1 [Nilotinib] + Nc1ncn([C@H]2C[C@H](O)[C@@H](CO)O2)c(=O)n1 [Decitabine] (partner 2 µM)
Return: 0.44

Enquiry: Consider the molecule Cc1cn(-c2cc(NC(=O)c3ccc(C)c(Nc4nccc(-c5cccnc5)n4)c3)cc(C(F)(F)F)c2)cn1 [Nilotinib] + C[C@]1(O)C[C@@H](c2nc(-c3ccc4ccc(-c5ccccc5)nc4c3)c3c(N)nccn32)C1 [Linsitinib] (partner 1 µM) . State its measured relative viability.
Return: 0.989

----------
Kindly supply the reported relative viability values for the records listed here.
System: NCI-H1793
Assay: relative viability (nuclei count vs DMSO), 5 days (fraction); higher = more cells survive
Details: first compound 0.002 µM
Lab note: jot down the number only; don't add units.

Enquiry: Quick one: give measured relative viability for CCNC(=O)c1noc(-c2cc(C(C)C)c(O)cc2O)c1-c1ccc(CN2CCOCC2)cc1 [Luminespib] + CC(=O)Nc1cccc(-n2c(=O)n(C3CC3)c(=O)c3c(Nc4ccc(I)cc4F)n(C)c(=O)c(C)c32)c1 [Trametinib] (partner 0.02 µM)
Return: 0.428

Enquiry: Specify relative viability for CCNC(=O)c1noc(-c2cc(C(C)C)c(O)cc2O)c1-c1ccc(CN2CCOCC2)cc1 [Luminespib] + CS(=O)(=O)CCNCc1ccc(-c2ccc3ncnc(Nc4ccc(OCc5cccc(F)c5)c(Cl)c4)c3c2)o1 [Lapatinib] (partner 2 µM) and stop.
Return: 0.697

Enquiry: Give the measured relative viability for CCNC(=O)c1noc(-c2cc(C(C)C)c(O)cc2O)c1-c1ccc(CN2CCOCC2)cc1 [Luminespib] + Nc1nc2[nH]cc(CCc3ccc(C(=O)N[C@@H](CCC(=O)O)C(=O)O)cc3)c2c(=O)[nH]1 [Pemetrexed] (partner 0.2 µM)
Return: 0.859

Enquiry: Using the record for CCNC(=O)c1noc(-c2cc(C(C)C)c(O)cc2O)c1-c1ccc(CN2CCOCC2)cc1 [Luminespib] + O=C(c1cc(Cc2n[nH]c(=O)c3ccccc23)ccc1F)N1CCN(C(=O)C2CC2)CC1 [Olaparib] (partner 8 µM) , state its measured relative viability.
Return: 0.999

----------
System: LXF-289
Assay: relative viability (nuclei count vs DMSO), 5 days (fraction); higher = more cells survive
Settings: first compound 0.03162 µM
Please provide measured relative viability for the entries that follow.
Respond with the number and no other words.

Enquiry: Please give the documented relative viability of Cc1cn(-c2cc(NC(=O)c3ccc(C)c(Nc4nccc(-c5cccnc5)n4)c3)cc(C(F)(F)F)c2)cn1 [Nilotinib] + Nc1nc2[nH]cc(CCc3ccc(C(=O)N[C@@H](CCC(=O)O)C(=O)O)cc3)c2c(=O)[nH]1 [Pemetrexed] (partner 0.2 µM)
Return: 0.878

Enquiry: Look up and state reported relative viability for Cc1cn(-c2cc(NC(=O)c3ccc(C)c(Nc4nccc(-c5cccnc5)n4)c3)cc(C(F)(F)F)c2)cn1 [Nilotinib] + O=C(CCCCCCC(=O)Nc1ccccc1)NO [Vorinostat] (partner 1 µM)
Return: 0.869

Enquiry: Supply recorded relative viability for Cc1cn(-c2cc(NC(=O)c3ccc(C)c(Nc4nccc(-c5cccnc5)n4)c3)cc(C(F)(F)F)c2)cn1 [Nilotinib] + COc1cccc2cc(-c3nc([C@H]4CC[C@H](C(=O)O)CC4)n4ncnc(N)c34)[nH]c12 [OSI-027] (partner 0.5 µM) here.
Return: 0.826

Enquiry: Find the measured relative viability of Cc1cn(-c2cc(NC(=O)c3ccc(C)c(Nc4nccc(-c5cccnc5)n4)c3)cc(C(F)(F)F)c2)cn1 [Nilotinib] + CCNC(=O)c1noc(-c2cc(C(C)C)c(O)cc2O)c1-c1ccc(CN2CCOCC2)cc1 [Luminespib] (partner 0.01 µM) and report it.
Return: 0.573

Enquiry: Identify the reported relative viability for the following entry. Cc1cn(-c2cc(NC(=O)c3ccc(C)c(Nc4nccc(-c5cccnc5)n4)c3)cc(C(F)(F)F)c2)cn1 [Nilotinib] + CC1(C)CCC(c2ccc(Cl)cc2)=C(CN2CCN(c3ccc(C(=O)NS(=O)(=O)c4ccc(N[C@H](CCN5CCOCC5)CSc5ccccc5)c(S(=O)(=O)C(F)(F)F)c4)cc3)CC2)C1 [Navitoclax] (partner 0.5 µM)
Return: 0.855

Enquiry: Give the measured relative viability for Cc1cn(-c2cc(NC(=O)c3ccc(C)c(Nc4nccc(-c5cccnc5)n4)c3)cc(C(F)(F)F)c2)cn1 [Nilotinib] + CC(=O)Nc1cccc(-n2c(=O)n(C3CC3)c(=O)c3c(Nc4ccc(I)cc4F)n(C)c(=O)c(C)c32)c1 [Trametinib] (partner 0.02 µM)
Return: 0.577
